fraction unbound at 6 h, 1 µM values, listed per item
# assaySummary: Fraction unbound in cynomolgus monkey brain homogenates at 1 uM after 6 hrs by equilibrium dialysis method
# conditionParameters: brain homogenate

# example entries with known answers
[[record]]
molecule = "CN1CCCC(n2nc(Cc3ccc(Cl)cc3)c3ccccc3c2=O)CC1 (centres undefined)"
observedproperty = "fraction unbound at 6 h, 1 µM"
reportedvalue = 0.014

[[record]]
molecule = "CCCNC(=O)NS(=O)(=O)c1ccc(Cl)cc1 [CHLORPROPAMIDE]"
observedproperty = "fraction unbound at 6 h, 1 µM"
reportedvalue = 0.699


Entry CN1Cc2c(N)cccc2C(c2ccccc2)C1 (centres undefined) — recorded fraction unbound at 6 h, 1 µM = 0.068

Entry CCN(CC)C(=O)/C(C#N)=C/c1cc(O)c(O)c([N+](=O)[O-])c1 — recorded fraction unbound at 6 h, 1 µM = 0.031

Memo: COc1ccc2c(c1)c(CC(=O)O)c(C)n2C(=O)c1ccc(Cl)cc1 , reported fraction unbound at 6 h, 1 µM: 0.053

The value of fraction unbound at 6 h, 1 µM measured for the molecule Cc1ccc(C(=O)c2cc(O)c(O)c([N+](=O)[O-])c2)cc1 turned out to be 0.003

// field: fraction unbound at 6 h, 1 µM; key: NC1CCN(c2c(F)cc3c(=O)c(C(=O)O)cn(C4CC4)c3c2Cl)C1 (centres undefined) ; value = 0.139

// NS(=O)(=O)Cc1noc2ccccc12 [ZONISAMIDE] : fraction unbound at 6 h, 1 µM value = 0.386

Looking up Cc1nc2n(c(=O)c1CCN1CCC(c3noc4cc(F)ccc34)CC1)CCCC2O (centres undefined) , I found its fraction unbound at 6 h, 1 µM recorded as 0.1

----------
# assaySummary: Fraction unbound in Wistar Han rat brain homogenates at 1 uM after 6 hrs by equilibrium dialysis method
# conditionParameters: brain homogenate
Below, each of the compounds is paired with its reported fraction unbound at 6 h, 1 µM value.
Lab note: jot down the number only; don't add units.

Measured fraction unbound at 6 h, 1 µM of CNCCC=C1c2ccccc2CCc2ccccc21 : 0.007

Kindly note the recorded fraction unbound at 6 h, 1 µM for Cc1ccc(C(=O)c2cc(O)c(O)c([N+](=O)[O-])c2)cc1 , which is 0.001

Per the records, this compound ( NC1CCN(c2c(F)cc3c(=O)c(C(=O)O)cn(C4CC4)c3c2Cl)C1 (stereo not given) ) has fraction unbound at 6 h, 1 µM equal to 0.148

Entry under test: CCN(C)C(=O)Oc1cccc([C@H](C)N(C)C)c1 . Its fraction unbound at 6 h, 1 µM was 0.338

The reported fraction unbound at 6 h, 1 µM of the compound CCN(CC)CCNC(=O)c1cc(Cl)c(N)cc1OC [METOCLOPRAMIDE] was 0.224

----------
Measured fraction unbound at 6 h, 1 µM by item
# assaySummary: Fraction unbound in CD-1 mouse brain homogenates at 1 uM after 6 hrs by equilibrium dialysis method
# conditionParameters: brain homogenate
I only need the number, thanks.

// fraction unbound at 6 h, 1 µM lookup, molecule = CN(C)CCCN1c2ccccc2CCc2ccc(Cl)cc21 , result: 0.004

fraction unbound at 6 h, 1 µM measured on CN(C)CCCC1(c2ccc(F)cc2)OCc2cc(C#N)ccc21 (centres undefined) = 0.06

Recorded fraction unbound at 6 h, 1 µM (molecule CNCCCN1c2ccccc2CCc2ccccc21 ): 0.011

The reported fraction unbound at 6 h, 1 µM of the molecule CC(CC(c1ccccc1)c1ccccc1)NC(C)(C)C (centres undefined) was 0.049
